- System: LATS1
- condition set: concentration: 1 μM, replicates: in singlicate; n = 1;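 note: KINOMEscan kinase panel screen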
// reported %Inh for each item listed

>  <compound>
C[C@@H]1CC[C@@H](C(=O)Nc2ccccc2)CN1c1cc(-c2ccc3c(N)n[nH]c3c2)nc(N)n1 [GSK2286062]

>  <unit name>
%

>  <%Inh>
0

$$$$
>  <compound>
CC(=O)Nc1nc2cnc(Nc3cc(NC(=O)c4cccc(C5(C#N)CC5)c4Cl)ccc3C)nc2s1

>  <unit name>
%

>  <%Inh>
26

$$$$
>  <compound>
CN1CCN(Cc2cccc(-c3ccc4c(Nc5ccc(Oc6ccccc6)cc5)ccnc4c3)c2)CC1 [GW578342]

>  <unit name>
%

>  <%Inh>
10

$$$$
>  <compound>
O=C(NC1CCN(c2ccnc(Nc3ccc(F)cc3)n2)C1)c1cc2ccccc2s1 (stereo not shown) [GSK1379716]

>  <unit name>
%

>  <%Inh>
7

$$$$

* * *

- System: YES
- Construct: gene YES1
- condition set: concentration: 1 μM, replicates: in singlicate; n = 1
In plain terms, low %Inh, meaning strictly below 8%, gives fulfilled, and everything else gives not fulfilled.

>  <compound>
FC(F)(F)c1ccc(/C=C/c2cncnc2Nc2ccc3[nH]c(Cc4ccccc4)nc3c2)cc1 [GW709199]

>  <group>
fulfilled

$$$$
>  <compound>
O=C(Nc1cccc(Oc2ccc3nc(NC(=O)C4CC4)cn3n2)c1)c1ccccc1C(F)(F)F

>  <group>
not fulfilled

$$$$
>  <compound>
Cc1ccc(C(=O)Nc2ccc(Nc3ccnc4cc(-c5nccs5)ccc34)cc2O)cc1.Cl [GW494702]

>  <group>
not fulfilled

$$$$
>  <compound>
O=C(Nc1n[nH]c2cc(-c3ccoc3)ccc12)C1CC1 [SB-738481]

>  <group>
fulfilled

$$$$

* * *

- Tested on: PIP5K2C
- Construct: gene PIP4K2C
- condition set: concentration: 1 μM, replicates: in singlicate; n = 1
// reported %Inh for each item listed
assay metric: %Inh (%)

>  <compound>
O=C(Nc1n[nH]c2nc(-c3ccc(O)cc3)ccc12)C1CC1

>  <unit name>
%

>  <reported measurement>
0

$$$$
>  <compound>
CC(=O)N1CCN(c2ccc(Nc3nccc(-c4sc(C(C)C)nc4-c4cccc(NS(=O)(=O)c5cccc(Cl)c5)c4)n3)cn2)CC1

>  <unit name>
%

>  <reported measurement>
66

$$$$
>  <compound>
CN1CCN(CCCNc2nccc(-c3c(-c4ccc(F)cc4)nn4cc(C(F)(F)F)ccc34)n2)CC1

>  <unit name>
%

>  <reported measurement>
0

$$$$
>  <compound>
CCc1ccc(-c2ccc3c(c2)-c2c(cnn2C)S(=O)(=O)N3C)cc1

>  <unit name>
%

>  <reported measurement>
77

$$$$
>  <compound>
Fc1ccc(-c2ncn(C3CCNCC3)c2-c2ccnc(Oc3ccc(-c4ccccc4)cc3)n2)cc1

>  <unit name>
%

>  <reported measurement>
20

$$$$
>  <compound>
COc1ccc(Nc2nccc(N3CCC(NC(=O)Nc4cccc(OC)c4)C3)n2)cc1 (centres unmarked)

>  <unit name>
%

>  <reported measurement>
16

$$$$
>  <compound>
c1ccc(Oc2ccc(Nc3ccnc4cc(-c5ccc(CNCCN6CCOCC6)o5)ccc34)cc2)nc1

>  <unit name>
%

>  <reported measurement>
57

$$$$
>  <compound>
Nc1ncc(-c2ccc3nccc(-c4ccncc4)c3c2)cc1S(=O)(=O)N1CCOCC1

>  <unit name>
%

>  <reported measurement>
30

$$$$
>  <compound>
CC(=O)Nc1nc2cnc(Nc3cc(NC(=O)c4cccc(C5(C#N)CC5)c4Cl)ccc3C)nc2s1

>  <unit name>
%

>  <reported measurement>
0

$$$$
>  <compound>
Nc1ncnc2c1nc(-c1ccccc1)n2-c1ccccc1

>  <unit name>
%

>  <reported measurement>
0

$$$$
>  <compound>
Clc1ccc(-c2nn3ncccc3c2-c2ccnc(Nc3ccc4c(c3)OCCO4)n2)cc1

>  <unit name>
%

>  <reported measurement>
43

$$$$
>  <compound>
Cl.c1ccc(-c2ccc3c(Nc4ccc5[nH]ncc5c4)ccnc3c2)nc1

>  <unit name>
%

>  <reported measurement>
55

$$$$
>  <compound>
C[C@@H](Oc1cc(-n2cnc3cc(-c4ccnc(NCCS(C)(=O)=O)c4)ccc32)sc1C(N)=O)c1ccccc1Cl

>  <unit name>
%

>  <reported measurement>
30

$$$$
>  <compound>
COC(=O)Nc1nc2ccc(Oc3ccc(NC(=O)Nc4cc(C(F)(F)F)ccc4F)cc3)cc2n1C.Cl

>  <unit name>
%

>  <reported measurement>
41

$$$$
>  <compound>
COc1ccc(Nc2nccc(NCCNC(=O)c3cc4ccccc4s3)n2)cc1

>  <unit name>
%

>  <reported measurement>
24

$$$$
>  <compound>
Nc1ncc(-c2cccnc2)c2scc(-c3ccc4c(c3)CCN4C(=O)Cc3ccccc3)c12

>  <unit name>
%

>  <reported measurement>
0

$$$$
>  <compound>
COc1ccc(-c2coc3ccc(-c4nnc(SCc5ccc(OC)c(C(F)(F)F)c5)o4)cc23)cc1

>  <unit name>
%

>  <reported measurement>
0

$$$$
>  <compound>
O=C(Nc1cccc(-c2nn3ccccc3c2-c2ccnc(Nc3cccc(C(F)(F)F)c3)n2)c1)c1c(F)cccc1F

>  <unit name>
%

>  <reported measurement>
10

$$$$
>  <compound>
O=C(Nc1cccc(-c2nn3ccccc3c2-c2ccnc(Nc3cccc(F)c3)n2)c1)c1c(F)ccc(F)c1Cl

>  <unit name>
%

>  <reported measurement>
0

$$$$
>  <compound>
COc1cccc(C2=C(Nc3ccc(Cl)c(C(=O)O)c3)C(=O)NC2=O)c1

>  <unit name>
%

>  <reported measurement>
28

$$$$
>  <compound>
COc1cc(Nc2nccc(N3CCC(NC(=O)c4cc5ccccc5s4)C3)n2)cc(OC)c1OC (centres unmarked)

>  <unit name>
%

>  <reported measurement>
92.6

$$$$
>  <compound>
COc1cccc(C(=O)Nc2cccc(Oc3ccc4nc(NC(=O)C5CC5)cn4n3)c2)c1

>  <unit name>
%

>  <reported measurement>
28

$$$$
>  <compound>
Cn1cc(-c2ccc3c(c2)CCN3C(=O)Cc2cccc(F)c2)c2c(N)ncnc21

>  <unit name>
%

>  <reported measurement>
38

$$$$
>  <compound>
COCCOCCOc1cc2ncc3c4ccc(C#N)cc4[nH]c3c2cc1OC

>  <unit name>
%

>  <reported measurement>
60

$$$$
>  <compound>
O=C(Nc1ccccc1F)NC1CCN(c2ccnc(Nc3ccc(F)cc3)n2)CC1

>  <unit name>
%

>  <reported measurement>
23

$$$$
>  <compound>
O=C(O)C(F)(F)F.O=C(O)C(F)(F)F.O=c1[nH]ccc2nc(N[C@@H]3CCCNC3)nc(Nc3ccc(S(=O)(=O)N4CCOCC4)cc3)c12

>  <unit name>
%

>  <reported measurement>
89

$$$$
>  <compound>
Cc1ccc(C)c(NC(=O)NC2CCN(c3ccnc(Nc4ccc(F)cc4)n3)C2)c1 (centres unmarked)

>  <unit name>
%

>  <reported measurement>
47

$$$$
>  <compound>
Cl.Cl.NCC(C(=O)Nc1cc(Br)c(-c2ccnc3[nH]ccc23)s1)c1ccccc1 (centres unmarked)

>  <unit name>
%

>  <reported measurement>
1

$$$$
>  <compound>
Cn1cc(-c2[nH]c3cc(NC(=O)[C@H](N)C4CCCCC4)cc4c3c2C=NNC4=O)cn1

>  <unit name>
%

>  <reported measurement>
41

$$$$
>  <compound>
CNC(=O)c1ccccc1Nc1nc(Nc2ccc(N3CCOCC3)cc2)ncc1Cl.Cl

>  <unit name>
%

>  <reported measurement>
57

$$$$
>  <compound>
Cc1ccc(S(=O)(=O)Nc2ccc(Nc3nccc(Nc4cccc5[nH]ncc45)n3)cc2)cc1

>  <unit name>
%

>  <reported measurement>
57

$$$$
>  <compound>
CCn1c(-c2nonc2N)nc2c(C#CC(C)(C)O)ncc(OCCCCN)c21.O=C(O)C(F)(F)F.O=C(O)C(F)(F)F

>  <unit name>
%

>  <reported measurement>
0

$$$$
